- Test system: clinically isolated HIV strain A-2-001
- test.name: microbe, parasite or virus in culture
- Assay type: cell-based
- experimental.conditions: Human immunodeficiency virus 1, 72 h, read-out: EC50, Virus Strains A-2-001
property.name: pEC50
Quick note: pEC50 values are minus log10 of concentrations in mol/L.

compound	pEC50
CC(C)CN(C[C@@H](O)[C@H](Cc1ccccc1)NC(=O)O[C@H]1CO[C@H]2OCC[C@H]21)S(=O)(=O)c1ccc(N)c(NCc2ccccn2)c1	8.83

API: the following record is the query input.
Query string: # lookup: pEC50 of CC(C)CN(CC(O)C(Cc1ccccc1)NC(=O)OC1COC2OCCC12)S(=O)(=O)c1ccc(N)c(NCc2ccc(F)cc2F)c1 (centres unmarked)
Result string: 9.21
